Biological target: HLA-A*02:01
Experiment: IEDB peptide-MHC binding, cellular MHC/competitive/fluorescence; bounds were set here for any values at or beyond the usual limits of such assays
Conditions: source organism: Vaccinia virus WR
Answer each item with its documented pIC50.
One number for each entry, as −log10 of the molar value.

These solved cases illustrate the format of a correct answer.
DLYNGGRIDM : 4.53
DLDKVYEIL : 4.53

Incoming: I have this sequence here, LITSAFDLL , and I need its recorded pIC50.
Outgoing: 4.52

* * *

Answer each item with its documented IC50.
Biological target: HLA-A*02:01
Assay: IEDB peptide-MHC binding, purified MHC/competitive/radioactivity; bounds were set here for any values at or beyond the usual limits of such assays
Conditions: source organism: Vaccinia virus WR
One number for each entry, in nM.

IIGEPIIVA : 1440

Please report IC50 for every entry that follows.
1. KLLYAAEMV
2. IVIEAIHTV
3. VIGLCIRISM
4. NLNMTDGDSV
5. ILPVIFLSI
6. LITWLIDYV

Outgoing:
[48, 1410, 735, 4320, 0.66, 71]
